Reference source: patent US9624200B2

Catalogue of pIC50 readings, one per entry.
Tested on: PDE4 from human U-937 cells
Assay: PDE4 Inhibition Assay
Assay type: biochemical
Experimental conditions: 1 μM cAMP, [3H]-cAMP, read-out: Potency Class (Inhibitory Concentration) in the PDE4 assay
pIC50: −log10 of the molar value.

Q: In one line, give reported pIC50 of the entry COc1ccc(N2CCN(C(=O)CN3CC[C@@H](O)C3)[C@@H](Cc3ccccc3)C2)cc1OC1CCCC1 [Compound 320] .
Result: < 6.00

Q: In one line, give reported pIC50 of the entry COc1ccc(N2CCN(C(=O)C3(O)CC3)[C@@H](Cc3ccccc3)C2)cc1OC1CCCC1 [Compound 283] .
Result: 6.00 to 6.70

Q: In one line, give reported pIC50 of the entry O=C(Cc1c[nH]cn1)N1CCN(c2ccc(OC(F)F)c(OC3CCC3)c2)C[C@@H]1Cc1ccccc1 [Compound 344] .
Result: > 6.70

Q: In one line, give reported pIC50 of the entry CCOC(=O)CC(=O)N1CCN(c2ccc(OC)c(OC3CCCC3)c2)C[C@@H]1CC(C)C [Compound 368] .
Result: < 6.00

Q: In one line, give reported pIC50 of the entry COc1ccc(N2CCN(C(=O)CC(N)=O)[C@@H](Cc3ccccc3)C2)cc1OC1CCC1 [Compound 261] .
Result: > 6.70

Q: In one line, give reported pIC50 of the entry COc1ccc(N2CCN(C(=O)C3CNC(=O)C3)[C@@H](Cc3ccccc3)C2)cc1OC1CCCC1 (some centres unmarked) [Compound 299] .
Result: 6.00 to 6.70

Q: In one line, give reported pIC50 of the entry COc1ccc(N2CCN(CC(N)=O)[C@@H](Cc3ccccc3)C2)cc1OC(F)F [Compound 271] .
Result: 6.00 to 6.70

Q: In one line, give reported pIC50 of the entry COc1ccc(N2CCN(C(=O)C3(C(=O)O)CCC3)[C@@H](Cc3ccccc3)C2)cc1OC1CCC1 [Compound 315] .
Result: > 6.70

====

Tested on: PDE4 from human U-937 cells
Assay: PDE4 Inhibition Assay
Assay type: biochemical
Experimental conditions: 1 μM cAMP, [3H]-cAMP, read-out: Potency Class (Inhibitory Concentration) in the PDE4 assay
pIC50: −log10 of the molar value.
Experimental endpoint: pIC50

Example entries and their recorded answers appear below.
[
  {
    "Compound": "COc1ccc(N2CCN(C(=O)CN)[C@@H](Cc3ccccc3)C2)cc1OC1CCC1 [Compound 349]",
    "Test value": "< 6.00"
  },
  {
    "Compound": "COc1ccc(N2CCN(C(=O)Cc3n[nH]c(C)n3)[C@@H](CN3CCOCC3)C2)cc1OC1CCCC1 [Compound 256]",
    "Test value": "> 6.70"
  }
]

Q: In one line, give reported pIC50 of the entry COc1ccc(N2CCN(C(=O)CCN)[C@@H](Cc3ccccc3)C2)cc1OC1CCC1 [Compound 274] .
Result: < 6.00

Q: In one line, give reported pIC50 of the entry COc1ccc(N2CCN(C(=O)Cc3n[nH]c([N+](=O)[O-])n3)[C@@H](Cc3ccccc3)C2)cc1OC(C)C [Compound 336] .
Result: < 6.00

====

Test system: PDE4 from human U-937 cells
Assay: PDE4 Inhibition Assay
Format: biochemical
Experimental conditions: 1 μM cAMP, [3H]-cAMP, read-out: Potency Class (Inhibitory Concentration) in the PDE4 assay
pIC50: −log10 of the molar value.
Catalogue of pIC50 readings, one per entry.

Q: In one line, give reported pIC50 of the entry COc1ccc(N2CCN(C(=O)CC(=O)O)[C@@H](Cc3ccccc3)C2)cc1OC1CCC1 .
Result: > 6.70

Q: In one line, give reported pIC50 of the entry COc1ccc(N2CCN(C(=O)Cc3ncc[nH]3)[C@@H](Cc3ccccc3)C2)cc1OC1CCCC1 .
Result: > 6.70

Q: In one line, give reported pIC50 of the entry CCc1nn(C(C)C)c2cc(N3CCN(C(=O)Cc4nc(C)n[nH]4)[C@@H](Cc4ccccc4)C3)ccc12 .
Result: > 6.70

Q: In one line, give reported pIC50 of the entry CCc1nn(C2CCCC2)c2cc(N3CCN(C(=O)Cc4nc(C)n[nH]4)[C@@H](Cc4ccccc4)C3)ccc12 .
Result: > 6.70

Q: In one line, give reported pIC50 of the entry CNCC(=O)N1CCN(c2ccc(OC)c(OC3CCC3)c2)C[C@@H]1Cc1ccccc1 .
Result: < 6.00

Q: In one line, give reported pIC50 of the entry COc1ccc(N2CCN(Cc3ccc(O)cc3)[C@@H](Cc3ccccc3)C2)cc1OC1CCCC1 .
Result: < 6.00

Q: In one line, give reported pIC50 of the entry COc1ccc(N2CCN(C(=O)Cc3c[nH]cn3)[C@@H](CC(C)C)C2)cc1OC1CCC1 .
Result: > 6.70
